# METHOD DESCRIPTION: inhibitors of TNFa-induced NFkB p65 translocation, primary screen, imaging, HUVEC, MLSMR starter and 10KST1 sets (AID 438);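 note: compound added about 3h40 before a 20 min TNFalpha stimulation; signal is the nuclear over cytoplasmic p65 intensity ratio per well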
# CONDITION DESCRIPTION: HUVEC TNFa-induced p65 nuclear translocation; at 2 µM, stronger effect = higher value, 0% TNFa-plus-vehicle, 100% no-TNFa wells
MEASURED ATTRIBUTE: inhibition (%)
Give a bare numeral; the unit % is implied.

Look over these answered cases.
# COMPOUND, inhibition, %
data = [
    ("Cc1occc1-c1nnc(SCC(=O)N2CCc3ccccc32)o1", -1.9),
    ("COc1ccc(C(=O)CN2C3=NCCCN3c3ccccc32)cc1OC", -3.1),
    ("O=C1c2ccccc2C(=O)N1CCCCN1CCN(CCCCN2C(=O)c3ccccc3C2=O)CC1", -3.5),
    ("COCCN(CCOC)c1ncnc2c1cnn2-c1ccccc1", -8.5),
    ("CCOc1cc(C2C(C#N)=C(N)Oc3n[nH]c(CC)c32)ccc1OCCN1CCOCC1 (stereo unspecified)", 23.4),
]

Here's the next entry for you.
QUERY: Fill in the blank: the reported inhibition of COc1cc2c(cc1NCc1ccccn1)oc1ccccc12 is ____.
RESULT: -1.5
